The measured values listed here are drawn from patent US20130224224A1.

# Lookup of reported % block keyed by entry
# Study system: T1, human CX3CR1 (human, UniProt P49238 1-355)
# T1 construct: overexpressed on CHO, BA/F3 or HEK293T cells; also called huCX3CR1; hCX3CR1
# T1 sequence: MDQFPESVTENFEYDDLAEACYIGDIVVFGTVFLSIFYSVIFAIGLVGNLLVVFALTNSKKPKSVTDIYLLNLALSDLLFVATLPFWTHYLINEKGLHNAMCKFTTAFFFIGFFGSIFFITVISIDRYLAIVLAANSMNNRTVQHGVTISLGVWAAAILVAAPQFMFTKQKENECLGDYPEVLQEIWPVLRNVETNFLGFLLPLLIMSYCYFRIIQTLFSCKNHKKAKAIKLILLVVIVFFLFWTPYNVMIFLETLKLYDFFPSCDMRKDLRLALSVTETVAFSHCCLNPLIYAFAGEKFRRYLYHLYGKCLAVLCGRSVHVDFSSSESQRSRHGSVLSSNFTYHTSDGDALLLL
# Method description: periplasmic extract, A647-fractalkine competition FACS, CHO-huCX3CR1
Quick note: give the figure in %, leave out the unit.

Use the examples below as a reference point.
CX3CR1BIIPMP54B1 (VHH, tested as periplasmic extract; not shown: C-terminal c-myc and His6 tags) VHH: EVQLVESGGGSVQAGESLRLSCAASGSIFSSNAMAWYRQAPGKQRDLVAGINSVGITKYADSVKGRFTISRDNAKNTAYLQMNSLKPEDTAVYYCTSDPRRGWDTRYWGQGTQVTVSS; 92.1
CX3CR1BIIPMP54A7 (VHH, also called 54A07; not shown: C-terminal c-myc and His6 tags) VHH: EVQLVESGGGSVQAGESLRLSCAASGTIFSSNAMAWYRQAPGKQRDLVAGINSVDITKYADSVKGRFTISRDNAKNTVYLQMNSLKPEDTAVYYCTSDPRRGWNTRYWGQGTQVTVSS; 68.9
CX3CR1BIIPMP54F6 (VHH, tested as periplasmic extract; not shown: C-terminal c-myc and His6 tags) VHH: KVQLVESGGGSVQAGESLRLSCAASGSIFSSNAMAWYRQAPGKQRDLVAAINSVGITKYADSVKGRFTISRDNAKNTVYLQMNSLKPEDTAVYYCTSDPRRGWDTRYWGQGTLVTVSS; 96.6

# ---- query binder ----
Req: What value of % block has been recorded for this entry: CX3CR1BIIPMP54A4 (VHH, also called 54A04; not shown: C-terminal c-myc and His6 tags) VHH: EVQLVESGRGSVQAGESLRLSCAASGSIFSSNAMAWYRQAPGKQRDLVAGINSVGITKYADSVKGRFTISRDNAKNTVYLQMNSLKPEDTAVYYCTSDPRRGWDTRYWGQGTQVTVSS
Resp: 86.6
